Biological target: Nuclear receptor subfamily 1 group I member 2 (Homo sapiens)
Assay: Dual reporter qHTS for antagonist of Pregnane X Receptor (hPXR) against the NCATS DSHEA and TCM libraries: Luminescence Readout (AID 1920060);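 also: HepG2 cells carrying hPXR luciferase reporter stimulated with rifampicin at 2 µM; 0% is about no effect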
Conditions: hPXR dual reporter cells, luciferase luminescence, antagonist mode; series mostly up to 40 µM
Records with an inconclusive call do not appear. Calls of active or inactive are those of the source. Calls follow the shape of the dose curve; as a rule, active = well fitted curve in the direction sought with a large enough effect; inconclusive = small, poorly fitted or top-dose-only effect, or another doubt; inactive = no such curve, though single readings can be large or run the other way.
quantity kind: outcome

compound="CC1=CCC(C(C)(C)O)CC1 (centres undefined)" measured_result=inactive
compound=CCCCCCCC(=O)O measured_result=inactive
compound=C[C@H]1[C@H](C)CC[C@]2(C(=O)O)CC[C@]3(C)C(=CC[C@@H]4[C@@]5(C)C[C@@H](O)[C@H](O)[C@@](C)(CO)[C@@H]5CC[C@]43C)[C@H]12 measured_result=inactive
compound=CC1=C(/C=C/C(C)=C/C=C/C(C)=C/CO)C(C)(C)CCC1 measured_result=inactive

---

Molecular target: ATP-dependent 6-phosphofructokinase (Trypanosoma brucei brucei)
Assay: qHTS Assay to Find Inhibitors of T. brucei phosphofructokinase: hit validation (AID 492961);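 also: luminescence reports ADP formed as PFK phosphorylates fructose-6-phosphate with ATP; % is scaled to controls: 0 for no effect and ±100 for the full control effect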
Details: T. brucei PFK, ADP-Glo luminescence; series mostly up to 51.4 µM
Inconclusive results are not listed. Calls of active or inactive are those of the source. Calls come from the whole dose curve; as a rule, active = well fitted inhibition curve with a large enough effect; inconclusive = small, poorly fitted or top-dose-only effect, or effect the other way; inactive = flat fitted curve, though single readings scatter.
quantity kind: outcome

compound_smiles=Cc1cc(C(=O)NNCc2ccccc2)no1 measured_result=inactive
compound_smiles=C=C1C(=CC=C2CCC[C@@]3(C)[C@@H]2CC[C@H]3[C@H](C)CCCC(C)C)C[C@@H](O)C[C@@H]1O measured_result=inactive
compound_smiles=CCCCCCCC(=O)O measured_result=inactive
compound_smiles=O=C(Nc1cccc(C(F)(F)F)c1)c1cc(Br)cc(Br)c1O measured_result=inactive

---

Test system: CP286
Assay: qHTS profiling for inhibitors of Plasmodium falciparum proliferation (AID 504749); also: nearly all actives have a fitted effect of over 60% in size
Conditions: P. falciparum in erythrocytes, SYBR Green DNA, 72 h; series mostly up to 28.7 µM
Records with an inconclusive call do not appear. The source made the active and inactive calls. The call rests on the fitted dose curve; in most records, active means well fitted inhibition curve with a large enough effect; inconclusive means small, poorly fitted or top-dose-only effect; inactive means flat fitted curve, though single readings scatter.
Please reply with one of these outcomes: yes (1) (active), no (0) (inactive)

Study these solved cases before continuing.
compound=CCCCCCCCCCCC[n+]1ccc2ccccc2c1 qualitative_label="yes (1)"
compound=CCCCCCCC(=O)O qualitative_label="no (0)"
compound=CC[N+](C)(C)Cc1ccccc1Br qualitative_label="no (0)"
compound=CC[C@@]1(O)C(=O)OCc2c1cc1n(c2=O)Cc2cc3c([N+](=O)[O-])cccc3nc2-1 qualitative_label="yes (1)"
compound=CCNC(=O)[C@@H]1CCCN1C(=O)[C@H](CCCN=C(N)N)NC(=O)[C@H](CC(C)C)NC(=O)[C@@H](Cc1c[nH]c2ccccc12)NC(=O)[C@H](Cc1ccc(O)cc1)NC(=O)[C@H](CO)NC(=O)[C@H](Cc1c[nH]c2ccccc12)NC(=O)[C@H](Cc1cnc[nH]1)NC(=O)[C@@H]1CCC(=O)N1 qualitative_label="yes (1)"

(Q) For CCCCCCOc1ccc(C(=N)N(CCCC)CCCC)c2ccccc12 , which call appears in the assay record?
(A) yes (1)

(Q) Do the same for CN1C(=O)CN2CCc3ccccc3C2c2cc(Cl)ccc21 (centres undefined) please
(A) no (0)

(Q) Do the same for CCN(CC)Cc1cc(Nc2ccnc3cc(Cl)ccc23)ccc1O please
(A) yes (1)

(Q) Do the same for CCOC(=O)C1=CC2(CC)CCCN3CCc4c(n1c1ccccc41)C32 (centres undefined) please
(A) yes (1)

---

Test system: Hek293T
Assay: Primary qHTS to identify gynecologic anti-cancer compounds using libraries of approved drugs and bioactive compounds (AID 1345084); also: % is scaled to controls: 0 for no effect and ±100 for the full control effect; nearly all actives have a fitted effect of over 55% in size
Conditions: Gynecologic cancer cell panel viability, ATPlite luminescence, 48 h, control line for the selectivity index; series mostly up to 57.5 µM
Source text: National Center for Advancing Translational Sciences [NCATS] Assay Overview: Chemotherapeutic drug responses vary from cancer to cancer and from patient to patient. […] ATPlite is a luminescence based assay reliant on the conversion of a luciferase substrate to light in the presence of ATP. As a cytotoxic compound will suppress growth and decrease the number of cells, the concentration of ATP will decrease, and less light signal will be detected in the well. […]
Records with an inconclusive call do not appear. Activity calls are given as the source filed them. The call rests on the fitted dose curve; in most records, active means well fitted cell-killing curve with a large enough effect; inconclusive means small, poorly fitted or top-dose-only effect, or effect the other way; inactive means flat fitted curve, though single readings scatter.
quantity kind: activity change, negative = cytotoxicity

compound=O=C(/C=C/c1ccc(O)cc1)O[C@H]1[C@@H]2C=CO[C@@H](O[C@@H]3O[C@H](CO)[C@@H](O)[C@H](O)[C@H]3O)[C@@H]2[C@@]2(CO)O[C@@H]12 target_system=Hek293T measured_result=inactive
compound=CC1=C(CC(=O)O)c2cc(F)ccc2C1=Cc1ccc(S(C)(=O)=O)cc1 target_system=Hek293T measured_result=inactive
compound="COc1cc(C2OCC3C(c4ccc(OC5OC(CO)C(O)C(O)C5O)c(OC)c4)OCC23)ccc1O (stereo not given)" target_system=Hek293T measured_result=inactive
compound=COc1cc(C(C)=O)ccc1O[C@@H]1O[C@H](CO[C@@H]2O[C@@H](C)[C@H](O)[C@@H](O)[C@H]2O)[C@@H](O)[C@H](O)[C@H]1O target_system=Hek293T measured_result=inactive

(Q) Observed activity change, negative = cytotoxicity on Hek293T for CC1(C)C[C@H]2C3=CCC4[C@@]5(C)CC[C@H](O[C@H]6O[C@H](C(=O)O)[C@@H](O)[C@H](O)[C@H]6O[C@H]6O[C@H](CO)[C@@H](O)[C@H](O)[C@H]6O[C@@H]6O[C@H](CO)[C@@H](O)[C@H](O)[C@H]6O)[C@](C)(CO)C5CC[C@@]4(C)[C@]3(C)CC[C@@]2(C)[C@H](O[C@@H]2OC[C@H](O)[C@H](OC3O[C@H](CO)[C@@H](O)[C@H](O)[C@H]3O)[C@H]2O)[C@@H]1O (stereo not given in full) , please.
(A) -1.35% [at 6.55 µM] (inactive)

---

Target: Cytochrome P450 2C9 (Homo sapiens)
Assay: Cytochrome P450 family 2 subfamily C member 9 (CYP2C9) small molecule antagonists: luciferase biochemical (cell-free) qHTS assay (AID 1645842); also: nearly all actives have a fitted effect of over 55% in size
Conditions: P450-Glo CYP2C9 enzyme assay, luciferin luminescence; series mostly up to 57.4 µM
Results filed as inconclusive are left out. The source made the active and inactive calls. Calls come from the whole dose curve; as a rule, active = well fitted inhibition curve with a large enough effect in the repeat runs; inconclusive = weak or mixed curves; inactive = no such curve, though single readings can be large or run the other way.
Please reply with one of these outcomes: TRUE = active, FALSE = inactive

molecule=C[C@H]1CN(C[C@H](Cc2ccccc2)C(=O)NCC(=O)O)CC[C@@]1(C)c1cccc(O)c1 qualitative_label=FALSE
molecule=OC[C@H]1O[C@@H](n2cnc3c2NC=NC[C@H]3O)C[C@@H]1O qualitative_label=FALSE
molecule=Cc1cc(Nc2ncc(Cl)c(Nc3ccccc3S(=O)(=O)C(C)C)n2)c(OC(C)C)cc1C1CCNCC1 qualitative_label=TRUE
molecule="CC(C)(C)NCC(O)COc1cccc2c1CCCC2=O (configuration not stated)" qualitative_label=FALSE

(Q) For CN(C)C/C=C/C(=O)Nc1ccc(C(=O)Nc2cccc(Nc3ncc(Cl)c(-c4c[nH]c5ccccc45)n3)c2)cc1 , which call appears in the assay record?
(A) TRUE

(Q) Do the same for CC(=O)N1CCN(NC(=O)c2ccc(F)cc2)CC1 please
(A) FALSE

(Q) Do the same for CNC(=O)c1ccc(Nc2ncc(C(F)(F)F)c(NCc3nccnc3N(C)S(C)(=O)=O)n2)cc1 please
(A) TRUE

(Q) Do the same for c1ccc(C(OC2CCN(CCCc3nn[nH]n3)CC2)c2ccccc2)cc1 please
(A) FALSE

---

Test system: CP191
Assay: qHTS profiling for inhibitors of Plasmodium falciparum proliferation (AID 504749); also: nearly all actives have a fitted effect of over 60% in size
Conditions: P. falciparum in erythrocytes, SYBR Green DNA, 72 h; series mostly up to 28.7 µM
Records with an inconclusive call do not appear. The source made the active and inactive calls. Calls follow the shape of the dose curve; as a rule, active = well fitted inhibition curve with a large enough effect; inconclusive = small, poorly fitted or top-dose-only effect; inactive = flat fitted curve, though single readings scatter.
Please reply with one of these outcomes: active, inactive

molecule="Nc1c(Br)cc(Br)cc1CNC1CCC(O)CC1 (stereo not given)" qualitative_label=inactive
molecule=Nc1c(N=Nc2ccc(-c3ccc(N=Nc4cc(S(=O)(=O)O)c5ccccc5c4N)cc3)cc2)cc(S(=O)(=O)O)c2ccccc12 qualitative_label=inactive
molecule="CC(O)CO (stereo not given)" qualitative_label=inactive
molecule=IC(I)I qualitative_label=inactive
molecule="CCC(=O)NCCC1CCc2ccc3c(c21)CCO3 (stereo not given)" qualitative_label=inactive
molecule=COCC(=O)Nc1cc(Sc2ccccc2)ccc1N=C(NC(=O)OC)NC(=O)OC qualitative_label=inactive
molecule=C=C1C(=CC=C2CCC[C@@]3(C)[C@@H]2CC[C@H]3[C@H](C)CCCC(C)C)C[C@@H](O)C[C@@H]1O qualitative_label=active
molecule=COc1ccc2c3c1O[C@H]1C[C@@H](O)C=C[C@@]31CCN(C)C2 qualitative_label=inactive

(Q) For CCCCC/C=C\C/C=C\CCCCCCCC(=O)O , which call appears in the assay record?
(A) inactive

(Q) Do the same for COC(=O)[C@H]1[C@H]2C[C@@H]3c4[nH]c5ccccc5c4CCN3C[C@H]2C[C@@H](OC(=O)c2cc(OC)c(OC)c(OC)c2)[C@@H]1OC please
(A) active

Data provenance: PubChem BioAssay (NCATS)
